The reported measurements were obtained from patent US20220280476A1.

TARGET_SYSTEM: UniProt:Q5JUK3
EXPERIMENT: KCNT1-WT-Basal patch clamp assay (SyncroPatch 384PE, HEK-TREX inducible cell line)
STUDY_CONDITIONS: tetracycline inducible HEK-TREX cells; perforated patch; holding -80 mV, 100 ms step to 0 mV; room temperature; read-out: KCNT1 WB IC50
pIC50: −log10 of the molar value.
Kindly state pIC50 for each of the entries shown.

// below: answered molecules
MOLECULE: Cn1c(C(=O)N[C@@H]2CCc3cc(Cl)ccc32)ccc1S(N)(=O)=O
TARGET_SYSTEM: UniProt:Q5JUK3
ASSAY_ENDPOINT: pIC50
RESULT: ≤ 4.70
//
MOLECULE: CNC(=O)c1ccc(C(=O)N[C@@H]2CCc3cc(Cl)ccc32)cc1
TARGET_SYSTEM: UniProt:Q5JUK3
ASSAY_ENDPOINT: pIC50
RESULT: 4.70 to 6.00
//
MOLECULE: CCS(=O)(=O)Nc1ccc(C(=O)N[C@@H]2CCc3cc(Cl)ccc32)cc1
TARGET_SYSTEM: UniProt:Q5JUK3
ASSAY_ENDPOINT: pIC50
RESULT: ≥ 6.00
//
MOLECULE: NS(=O)(=O)c1ccc(C(=O)N[C@H]2CCCc3cc(Cl)ccc32)s1 (single isomer, unassigned)
TARGET_SYSTEM: UniProt:Q5JUK3
ASSAY_ENDPOINT: pIC50
RESULT: ≥ 6.00
//
MOLECULE: CN(c1ccc(C(=O)N[C@H]2CCc3cc(Cl)ccc32)cc1)S(=O)(=O)C1CC1
TARGET_SYSTEM: UniProt:Q5JUK3
ASSAY_ENDPOINT: pIC50
RESULT: 4.70 to 6.00
//
MOLECULE: CS(=O)(=O)N(c1ccc(C(=O)N[C@@H]2CCc3cc(Cl)ccc32)cc1)C1COC1
TARGET_SYSTEM: UniProt:Q5JUK3
ASSAY_ENDPOINT: pIC50
RESULT: 4.70 to 6.00

Shift focus to the following entry.
Q) What does the record list as pIC50 for CS(=O)(=O)Nc1ccc(C(=O)NC2CCc3cc(C(F)(F)F)ccc32)cc1 (single isomer, unassigned) [Compound II-58] ?
A) < 4.70

----------
Kindly state pIC50 for each of the entries shown.
TARGET_SYSTEM: KCNT1 (KNa1.1, Slack) (Homo sapiens, UniProt Q5JUK3)
Sequence (Q5JUK3 1-1230): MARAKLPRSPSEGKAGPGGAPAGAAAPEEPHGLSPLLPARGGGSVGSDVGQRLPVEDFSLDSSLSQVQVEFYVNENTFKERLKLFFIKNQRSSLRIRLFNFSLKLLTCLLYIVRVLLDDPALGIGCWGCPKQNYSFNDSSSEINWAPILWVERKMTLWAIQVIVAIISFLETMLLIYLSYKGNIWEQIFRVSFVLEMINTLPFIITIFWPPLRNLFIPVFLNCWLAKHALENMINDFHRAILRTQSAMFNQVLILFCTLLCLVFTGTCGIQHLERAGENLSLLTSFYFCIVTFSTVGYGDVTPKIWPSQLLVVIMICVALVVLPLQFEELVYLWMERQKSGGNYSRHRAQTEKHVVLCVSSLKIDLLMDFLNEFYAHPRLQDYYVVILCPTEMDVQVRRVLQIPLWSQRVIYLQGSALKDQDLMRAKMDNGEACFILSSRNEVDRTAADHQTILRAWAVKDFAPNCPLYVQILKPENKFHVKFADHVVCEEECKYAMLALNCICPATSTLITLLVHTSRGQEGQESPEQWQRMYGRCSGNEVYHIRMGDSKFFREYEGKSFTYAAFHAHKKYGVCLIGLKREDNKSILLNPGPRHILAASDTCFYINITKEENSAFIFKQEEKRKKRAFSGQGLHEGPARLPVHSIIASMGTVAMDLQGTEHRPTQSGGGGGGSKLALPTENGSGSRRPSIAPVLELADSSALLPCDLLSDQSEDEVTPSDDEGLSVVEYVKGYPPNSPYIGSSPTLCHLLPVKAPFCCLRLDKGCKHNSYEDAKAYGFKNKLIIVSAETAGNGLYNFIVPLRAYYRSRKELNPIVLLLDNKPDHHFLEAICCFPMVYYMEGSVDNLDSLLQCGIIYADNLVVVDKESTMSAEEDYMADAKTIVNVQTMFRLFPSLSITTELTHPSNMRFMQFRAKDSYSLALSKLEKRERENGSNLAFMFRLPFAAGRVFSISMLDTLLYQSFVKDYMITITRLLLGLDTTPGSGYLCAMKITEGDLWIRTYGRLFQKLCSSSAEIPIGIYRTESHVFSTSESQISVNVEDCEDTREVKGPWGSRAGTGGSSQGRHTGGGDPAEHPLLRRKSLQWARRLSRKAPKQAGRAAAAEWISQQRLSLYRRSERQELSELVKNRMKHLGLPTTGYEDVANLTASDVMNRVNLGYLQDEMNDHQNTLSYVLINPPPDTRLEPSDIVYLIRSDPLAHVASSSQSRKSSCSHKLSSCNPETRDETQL
EXPERIMENT: KCNT1-WT-Basal patch clamp assay (SyncroPatch 384PE, HEK-TREX inducible cell line)
STUDY_CONDITIONS: tetracycline inducible HEK-TREX cells; perforated patch; holding -80 mV, 100 ms step to 0 mV; room temperature; read-out: KCNT1 WB IC50
pIC50: −log10 of the molar value.

MOLECULE: COc1ccc(C(=O)NC2CCc3cc(Cl)ccc32)c(O)c1 (single isomer, unassigned) [Compound III-2]
ASSAY_ENDPOINT: pIC50
RESULT: ≥ 6.00
//
MOLECULE: CS(=O)(=O)Nc1ccc(C(=O)NC2CCc3cc(F)ccc32)cc1 (single isomer, unassigned) [Compound II-59]
ASSAY_ENDPOINT: pIC50
RESULT: < 4.70
//
MOLECULE: CCS(=O)(=O)N(C)c1ccc(C(=O)N[C@@H]2CCc3cc(Cl)ccc32)cc1
ASSAY_ENDPOINT: pIC50
RESULT: ≥ 6.00
//
MOLECULE: NC(=O)c1ccc(C(=O)N[C@H]2CCCc3cc(Cl)ccc32)s1 (single isomer, unassigned)
ASSAY_ENDPOINT: pIC50
RESULT: ≤ 4.70
//
MOLECULE: O=C(N[C@@H]1CCc2cc(Cl)ccc21)c1ccc(S(=O)(=O)C2CC2)cc1
ASSAY_ENDPOINT: pIC50
RESULT: ≥ 6.00

Answer for every listed entry: what is its pIC50? The entries follow.
1. COc1ccc(C(=O)NC2CCc3cc(Cl)ccc32)cc1 (single isomer, unassigned) [Compound II-8]
2. Cc1ccc(O)c(C(=O)N[C@@H]2CCc3cc(Cl)ccc32)c1
3. CN(c1ccc(C(=O)N[C@H]2CCc3cc(Cl)ccc32)cc1)S(=O)(=O)C(F)(F)F

A)
1: 4.70 to 6.00; 2: ≥ 6.00; 3: 4.70 to 6.00

----------
TARGET_SYSTEM: KCNT1 (KNa1.1, Slack) (Homo sapiens)
Construct: expressed in transfected cells; host or cells: HEK-TREX (tetracycline-inducible HEK cell line)
Sequence (Q5JUK3 1-1230): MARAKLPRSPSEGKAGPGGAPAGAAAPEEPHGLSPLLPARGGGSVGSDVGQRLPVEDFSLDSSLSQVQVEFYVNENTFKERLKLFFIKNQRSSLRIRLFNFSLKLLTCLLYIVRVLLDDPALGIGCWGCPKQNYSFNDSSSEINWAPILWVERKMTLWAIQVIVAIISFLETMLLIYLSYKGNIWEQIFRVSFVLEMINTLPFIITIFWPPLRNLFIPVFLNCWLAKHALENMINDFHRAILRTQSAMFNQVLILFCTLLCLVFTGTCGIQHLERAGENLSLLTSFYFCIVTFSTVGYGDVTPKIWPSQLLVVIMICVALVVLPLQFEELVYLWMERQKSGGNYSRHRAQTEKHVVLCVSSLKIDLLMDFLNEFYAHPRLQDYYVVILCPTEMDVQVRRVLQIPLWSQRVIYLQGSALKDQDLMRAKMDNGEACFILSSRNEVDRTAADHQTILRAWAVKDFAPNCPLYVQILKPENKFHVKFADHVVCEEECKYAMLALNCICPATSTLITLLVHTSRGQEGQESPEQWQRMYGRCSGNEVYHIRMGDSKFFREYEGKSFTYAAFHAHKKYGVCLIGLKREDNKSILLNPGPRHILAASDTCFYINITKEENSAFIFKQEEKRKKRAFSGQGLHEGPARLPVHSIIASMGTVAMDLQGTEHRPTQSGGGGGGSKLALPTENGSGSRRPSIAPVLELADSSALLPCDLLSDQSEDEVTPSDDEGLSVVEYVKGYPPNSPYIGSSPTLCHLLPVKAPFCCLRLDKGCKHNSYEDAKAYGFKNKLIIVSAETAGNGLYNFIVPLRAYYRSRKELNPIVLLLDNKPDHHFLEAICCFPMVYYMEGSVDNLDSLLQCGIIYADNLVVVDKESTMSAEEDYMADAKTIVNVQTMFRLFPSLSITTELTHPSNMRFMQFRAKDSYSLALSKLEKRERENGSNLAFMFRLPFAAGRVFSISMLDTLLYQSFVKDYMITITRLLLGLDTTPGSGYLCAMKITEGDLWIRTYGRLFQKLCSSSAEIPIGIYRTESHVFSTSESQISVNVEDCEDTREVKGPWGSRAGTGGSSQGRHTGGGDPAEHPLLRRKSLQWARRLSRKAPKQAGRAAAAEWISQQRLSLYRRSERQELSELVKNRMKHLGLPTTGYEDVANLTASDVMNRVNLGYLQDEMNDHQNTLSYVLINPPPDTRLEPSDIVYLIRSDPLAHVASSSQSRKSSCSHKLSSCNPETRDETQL
EXPERIMENT: KCNT1-WT-Basal patch clamp assay (SyncroPatch 384PE, HEK-TREX inducible cell line)
Format: cell-based
STUDY_CONDITIONS: tetracycline inducible HEK-TREX cells; perforated patch; holding -80 mV, 100 ms step to 0 mV; room temperature; read-out: KCNT1 WB IC50
Kindly state IC50 for each of the entries shown.

// below: answered compounds
COMPOUND: CS(=O)(=O)Nc1ccc(C(=O)N[C@@H]2CCc3cc(Cl)ccc32)c(O)c1
IC50: ≤ 1000 nM

COMPOUND: O=C(N[C@@H]1CCc2cc(Cl)ccc21)c1cc(Cl)ccc1O
IC50: ≤ 1000 nM

COMPOUND: CNS(=O)(=O)c1ccc(C(=O)N[C@@H]2CCCc3cc(Cl)ccc32)s1 (single isomer, unassigned)
IC50: 1000 to 20000 nM

COMPOUND: CC(=O)N(C)Cc1ccc(C(=O)N[C@@H]2CCc3cc(Cl)ccc32)s1
IC50: ≤ 1000 nM

COMPOUND: O=C(N[C@@H]1CCc2cc(Cl)ccc21)c1ccccc1O
IC50: ≤ 1000 nM

Answer for every listed entry: what is its IC50? The entries follow.
1. NC(=O)c1ccc(C(=O)N[C@@H]2CCCc3cc(Cl)ccc32)s1 (single isomer, unassigned)
2. O=C(N[C@@H]1CCc2cc(Cl)ccc21)c1c(O)cccc1F

A)
1. ≤ 1000 nM
2. 1000 to 20000 nM

Answer for every listed entry: what is its IC50? The entries follow.
1. CN(C)S(=O)(=O)c1ccc(C(=O)N[C@@H]2CCc3cc(Cl)ccc32)cc1
2. CS(=O)(=O)Cc1ccc(C(=O)NC2CCc3cc(Cl)ccc32)cc1 (single isomer, unassigned) [Compound II-6]

A)
≤ 1000 nM
1000 to 20000 nM
